Reference source for all entries: patent US8552161B2

# Tested on: malignant melanoma cell line G-361
# test: Calcein AM cytotoxicity assay, G-361
# Type: cell-based, human
# settings: 72 h, means ± SD, three independent experiments in triplicate
Each entry below carries its recorded IC50.
assay.endpoint: IC50 (nM)

compound	censoring.qualifier	reported
COc1ccc(C(=O)O[C@H]2[C@H](O[C@@H]3[C@@H](OC(C)=O)[C@H](O[C@H]4C[C@H]5[C@@H]6CC=C7C[C@@H](O)CC[C@]7(C)[C@H]6CC[C@]5(C)[C@@]4(O)[C@H](C)COC(=O)c4ccccc4)OC[C@@H]3O)OC[C@@H](O)[C@@H]2O)cc1	=	1660
CC(C)CCC(=O)[C@@H](C)[C@@]1(O)[C@@H](O)C[C@H]2[C@@H]3CC=C4C[C@@H](O)CC[C@]4(C)[C@H]3CC[C@@]21C [OSW-1 aglycone, reference compound]	>	50000
CCCCCCCCCCCCCC(=O)OC[C@@H](C)[C@@]1(O)[C@@H](O[C@@H]2OC[C@H](O)[C@H](O[C@@H]3OC[C@@H](O)[C@H](O)[C@H]3OC(=O)c3ccc(OC)cc3)[C@H]2OC(C)=O)C[C@H]2[C@@H]3CC=C4C[C@@H](O)CC[C@]4(C)[C@H]3CC[C@@]21C	=	30
CCCCCCCCCCCCCCCCCC(=O)OC[C@@H](C)[C@@]1(O)[C@@H](O[C@@H]2OC[C@H](O)[C@H](O[C@@H]3OC[C@@H](O)[C@H](O)[C@H]3OC(=O)c3ccc(OC)cc3)[C@H]2OC(C)=O)C[C@H]2[C@@H]3CC=C4C[C@@H](O)CC[C@]4(C)[C@H]3CC[C@@]21C	=	300
COc1ccc(C(=O)O[C@H]2[C@H](O[C@@H]3[C@@H](OC(C)=O)[C@H](O[C@H]4C[C@H]5[C@@H]6CC=C7C[C@@H](O)CC[C@]7(C)[C@H]6CC[C@]5(C)[C@@]4(O)[C@H](C)COCc4ccccc4)OC[C@@H]3O)OC[C@@H](O)[C@@H]2O)cc1	=	750
CCCCC(=O)OC[C@@H](C)[C@@]1(O)[C@@H](O[C@@H]2OC[C@H](O)[C@H](O[C@@H]3OC[C@@H](O)[C@H](O)[C@H]3OC(=O)c3ccc(OC)cc3)[C@H]2OC(C)=O)C[C@H]2[C@@H]3CC=C4C[C@@H](O)CC[C@]4(C)[C@H]3CC[C@@]21C	=	390
CCCCCCC(=O)OC[C@@H](C)[C@@]1(O)[C@@H](O[C@@H]2OC[C@H](O)[C@H](O[C@@H]3OC[C@@H](O)[C@H](O)[C@H]3OC(=O)c3ccc(OC)cc3)[C@H]2OC(C)=O)C[C@H]2[C@@H]3CC=C4C[C@@H](O)CC[C@]4(C)[C@H]3CC[C@@]21C	=	1280
C/C=C/C(=O)OC[C@@H](C)[C@@]1(O)[C@@H](O[C@@H]2OC[C@H](O)[C@H](O[C@@H]3OC[C@@H](O)[C@H](O)[C@H]3OC(=O)c3ccc(OC)cc3)[C@H]2OC(C)=O)C[C@H]2[C@@H]3CC=C4C[C@@H](O)CC[C@]4(C)[C@H]3CC[C@@]21C	=	890
COc1ccc(C(=O)O[C@H]2[C@H](O[C@@H]3[C@@H](OC(C)=O)[C@H](O[C@H]4C[C@H]5[C@@H]6CC=C7C[C@@H](O)CC[C@]7(C)[C@H]6CC[C@]5(C)[C@@]4(O)[C@H](C)C(=O)CCC(C)C)OC[C@@H]3O)OC[C@@H](O)[C@@H]2O)cc1 [OSW-1, reference compound]	=	1000
